tested on: RARg homodimer (NR concentration 270 nM); experiment: PBM binding z-score (relative to random genomic background probes); higher = stronger binding; sequences stand for … in GC…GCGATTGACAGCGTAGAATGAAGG
PARAMETER: PBM binding z-score
Give the figure by itself; no unit, no explanation.

Sample answers from the record:
>  <RESIDUE SEQUENCE>
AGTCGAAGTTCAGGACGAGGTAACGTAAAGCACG

>  <TARGET OR TEST SYSTEM>
RARg homodimer (NR concentration 270 nM)

>  <EXPERIMENTAL RESULT>
1.89

$$$$
>  <RESIDUE SEQUENCE>
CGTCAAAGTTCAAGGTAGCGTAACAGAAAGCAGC

>  <TARGET OR TEST SYSTEM>
RARg homodimer (NR concentration 270 nM)

>  <EXPERIMENTAL RESULT>
6.34

$$$$

Q: I have this sequence here, `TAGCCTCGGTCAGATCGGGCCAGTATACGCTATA` , and I need its recorded PBM binding z-score.
A: 1.98

Q: Reported PBM binding z-score, sequence `GATACAGGGTCAGCTAGAGGACAGAGTATGGAAA` : ____
A: 4.97

Q: What does the record list as PBM binding z-score for `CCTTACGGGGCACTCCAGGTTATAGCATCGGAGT` ?
A: 0.823

Q: For `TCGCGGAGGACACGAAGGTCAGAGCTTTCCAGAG` , what is its reported PBM binding z-score?
A: 3.52

Q: PBM binding z-score lookup needed for `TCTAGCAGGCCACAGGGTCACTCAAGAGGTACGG` , thanks.
A: 2.75

Q: Which value of PBM binding z-score has been reported for `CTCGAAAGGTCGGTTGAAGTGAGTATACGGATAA` in the records?
A: 2.65

Q: Would you kindly share the measured PBM binding z-score for `TTACCAAGTTGAAGGTCGTTGATCCCTCTGTAGA` ?
A: 0.342

Q: # PBM binding z-score lookup, item `AATATAGGGTCATCGTAGGCCAGAGTACGCACAG`
A: 5.5

Q: Can you look up the measured PBM binding z-score of `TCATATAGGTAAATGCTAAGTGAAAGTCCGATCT` for me?
A: 0.337

Q: // query PBM binding z-score value for entry `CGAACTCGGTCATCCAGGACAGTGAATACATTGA`
A: 2.83

Q: So what does the record say about PBM binding z-score for `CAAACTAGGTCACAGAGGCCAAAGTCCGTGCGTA` ?
A: 5.37

Q: # lookup: PBM binding z-score of `TCTTGTAGATCAATAGAGCTTAAGAAAGTGCGCT`
A: -0.425

Q: Find the recorded PBM binding z-score belonging to `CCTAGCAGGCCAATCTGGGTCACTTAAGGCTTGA` and report it.
A: 1.19

Q: Could you tell me which PBM binding z-score is on file for `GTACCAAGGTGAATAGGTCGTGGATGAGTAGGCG` ?
A: 1.51

Q: Given the sequence `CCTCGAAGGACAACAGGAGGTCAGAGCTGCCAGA` , what is its reported PBM binding z-score?
A: 3.28

Q: I would be grateful if you could share the reported PBM binding z-score for `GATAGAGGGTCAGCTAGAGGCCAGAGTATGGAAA` .
A: 4.5

====

The following sequences are listed with their measured PBM binding z-score values.
tested on: PXR:RXRa (NR concentration 270 nM, RXRa partner concentration 90 nM); assay: PBM binding z-score (relative to random genomic background probes); higher = stronger binding; sequences stand for … in GC…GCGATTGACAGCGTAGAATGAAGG
Write no unit; give the number alone.

Use the examples below as a reference point.
>  <RESIDUE SEQUENCE>
TCGAGAAGGTTAGGGGCATTCAGAATGGCGTCGA

>  <PARAMETER>
PBM binding z-score

>  <EXPERIMENTAL RESULT>
0.866

$$$$
>  <RESIDUE SEQUENCE>
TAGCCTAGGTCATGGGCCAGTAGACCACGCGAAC

>  <PARAMETER>
PBM binding z-score

>  <EXPERIMENTAL RESULT>
1.5

$$$$
>  <RESIDUE SEQUENCE>
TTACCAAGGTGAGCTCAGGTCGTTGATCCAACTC

>  <PARAMETER>
PBM binding z-score

>  <EXPERIMENTAL RESULT>
3.09

$$$$
>  <RESIDUE SEQUENCE>
ACTAGCAGGCCAAGGGTCACTTAAGATTAGTCCG

>  <PARAMETER>
PBM binding z-score

>  <EXPERIMENTAL RESULT>
3.33

$$$$
>  <RESIDUE SEQUENCE>
ACAGACAGGTGACGAAGGTAACTCAGGCTATCAT

>  <PARAMETER>
PBM binding z-score

>  <EXPERIMENTAL RESULT>
-0.208

$$$$

Q: Fill in: PBM binding z-score of `ACTATTAGTTGAGACGAGGGCATCCGATAGGTTG` is ___
A: 1.7

Q: Could you tell me which PBM binding z-score is on file for `ACTATTAGTCGACTTAGGGCAACCGATACGACGC` ?
A: -0.188

Q: May I ask what PBM binding z-score has been recorded for `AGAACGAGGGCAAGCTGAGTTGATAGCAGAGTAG` ?
A: 1.13

Q: Entry `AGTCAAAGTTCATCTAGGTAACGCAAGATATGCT` : reported PBM binding z-score = ?
A: 5.12

Q: Give the measured PBM binding z-score of `TCGAGTAGGTTAGGGGCTTTCAGAATGGCGTCGA` .
A: -0.179

Q: Reported PBM binding z-score for `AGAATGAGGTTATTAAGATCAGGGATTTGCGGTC` : what is it?
A: 1.23

====

test system: RARg:RXRa (NR concentration 270 nM, RXRa partner concentration 90 nM); test: PBM binding z-score (relative to random genomic background probes); higher = stronger binding; sequences stand for … in GC…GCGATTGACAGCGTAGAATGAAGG
The label depends only on PBM binding z-score: t if it is at least 0.2, f if it is smaller.

These recorded examples may help you get a feel for the data.
>  <RESIDUE SEQUENCE>
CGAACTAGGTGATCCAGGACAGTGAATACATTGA

>  <CLASSIFICATION>
f

$$$$
>  <RESIDUE SEQUENCE>
ATTTGTAGGTTAGCTGGGGTCATTCAGACTAGGC

>  <CLASSIFICATION>
t

$$$$
>  <RESIDUE SEQUENCE>
ATCTCTATGTAACAAGTTCAGTGAAAGAGAGGAC

>  <CLASSIFICATION>
t

$$$$
>  <RESIDUE SEQUENCE>
GGAACGAGAGCATTCGAGTTGATAGCATGGCGAT

>  <CLASSIFICATION>
f

$$$$
>  <RESIDUE SEQUENCE>
AGAATGAGGCTACCAAAGATCAGGGAAACGCTTG

>  <CLASSIFICATION>
t

$$$$

Q: Quick check: does `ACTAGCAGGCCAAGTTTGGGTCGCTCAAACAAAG` have PBM binding z-score greater than or equal to 0.2?
A: f

====

tested on: LXRa:RXRa (NR concentration 270 nM, RXRa partner concentration 90 nM); assay: PBM binding z-score (relative to random genomic background probes); higher = stronger binding; sequences stand for … in GC…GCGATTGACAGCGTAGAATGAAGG
PARAMETER: PBM binding z-score

>  <RESIDUE SEQUENCE>
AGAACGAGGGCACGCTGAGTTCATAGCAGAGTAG

>  <PBM binding z-score>
3.15

$$$$
>  <RESIDUE SEQUENCE>
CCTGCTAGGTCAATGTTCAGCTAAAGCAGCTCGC

>  <PBM binding z-score>
2.39

$$$$
>  <RESIDUE SEQUENCE>
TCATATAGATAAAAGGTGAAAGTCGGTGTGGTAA

>  <PBM binding z-score>
1.57

$$$$

Q: Param item = `ACTAGGAGGCCAAGGGTCACTCAAGATTAGTCCG` ; retrieve measured PBM binding z-score.
A: 3.11

Q: Dear colleague, I am looking for the recorded PBM binding z-score of the following sequence: `CCTGCTAGGTCATGGTCAGCTCATCTACAGTATG`
A: 2.63

Q: If you can, please state the reported PBM binding z-score value of `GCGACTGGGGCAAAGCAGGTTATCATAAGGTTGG` .
A: 0.29

Q: Could you share which PBM binding z-score value was measured for `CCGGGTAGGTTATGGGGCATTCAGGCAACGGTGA` ?
A: 0.484

Q: Item `CCTCGGAGCACAGAAGGTCAGAGCTGTCCGCTTT` has what recorded PBM binding z-score?
A: 2.17

Q: Which PBM binding z-score is reported for this sequence? `ATACCAAGGTGAGCGTGAGGTCGTTGATACTAAC`
A: 1.3
